Biological target: UniProt:Q9UBT2
Sequence (Q9UBT2 whole entry): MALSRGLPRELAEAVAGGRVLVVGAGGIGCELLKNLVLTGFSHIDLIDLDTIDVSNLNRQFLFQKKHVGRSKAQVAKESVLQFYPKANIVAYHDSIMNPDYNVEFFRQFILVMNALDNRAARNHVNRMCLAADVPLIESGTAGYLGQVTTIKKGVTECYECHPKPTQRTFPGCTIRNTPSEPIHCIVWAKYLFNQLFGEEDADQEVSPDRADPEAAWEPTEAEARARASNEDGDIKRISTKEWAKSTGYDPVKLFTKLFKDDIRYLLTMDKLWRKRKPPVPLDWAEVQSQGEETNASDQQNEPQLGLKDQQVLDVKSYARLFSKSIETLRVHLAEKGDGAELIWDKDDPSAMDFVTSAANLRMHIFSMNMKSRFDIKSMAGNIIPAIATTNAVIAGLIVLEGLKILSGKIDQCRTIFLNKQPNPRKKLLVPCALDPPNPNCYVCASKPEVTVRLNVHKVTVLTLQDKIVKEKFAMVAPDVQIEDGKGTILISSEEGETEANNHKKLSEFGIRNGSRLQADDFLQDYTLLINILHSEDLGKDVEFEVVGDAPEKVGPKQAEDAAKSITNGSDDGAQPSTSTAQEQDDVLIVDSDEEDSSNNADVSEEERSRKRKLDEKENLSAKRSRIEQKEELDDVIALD
Sequence (Q9UBE0 whole entry partner): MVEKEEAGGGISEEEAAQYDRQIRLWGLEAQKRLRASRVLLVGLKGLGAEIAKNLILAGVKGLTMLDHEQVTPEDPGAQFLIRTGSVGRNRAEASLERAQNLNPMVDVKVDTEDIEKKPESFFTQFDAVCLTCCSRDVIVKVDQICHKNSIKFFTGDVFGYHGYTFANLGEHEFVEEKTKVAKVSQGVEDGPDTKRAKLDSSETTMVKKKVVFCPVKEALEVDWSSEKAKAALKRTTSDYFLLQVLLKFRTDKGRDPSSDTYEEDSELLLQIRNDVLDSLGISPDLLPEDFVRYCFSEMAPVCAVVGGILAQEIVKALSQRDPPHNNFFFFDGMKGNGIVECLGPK
Assay: In vitro inhibitory activity assay against SAE (SUMO-2/3 immunofluorescence in HCT116 cells)
Type: cell-based
Conditions: 6 h incubation, class symbols, read-out: SUMO IF IC50
endpointLabel: IC50

Some compounds with known IC50 results, for comparison:
>>> result("CC1=C[C@]2(NCCc3ccc(Cl)cc32)c2cc(C(=O)c3cncnc3N[C@@H]3C[C@H](COS(N)(=O)=O)[C@@H](O)C3)sc21 [Compound 159]")
"≤ 50 nM"
>>> result("NS(=O)(=O)OC[C@H]1C[C@@H](Nc2ncncc2C(=O)c2cc3c(s2)CCC[C@@]32OCCc3ccc(Cl)cc32)C[C@@H]1O [Compound 221]")
"> 200 nM"

Pending compound:
Input line: Which IC50 value is on record for NS(=O)(=O)OC[C@H]1C[C@@H](Nc2ncncc2C(=O)c2cc3c(s2)CNCC32NCCc3ccc(Cl)cc32)C[C@@H]1O (stereo partly drawn) [Compound 118] ?
Output line: 50 to 200 nM
